- protocolDetails: in vitro
- Assay type: cell-based
- conditionNotes: human, Table 4; non-cytotoxic when values higher than 80 % of 1 % DMSO treated cells; read-out: toxicity LC50
measuredParameter: CC50 at 48 h

* OCc1ccc(Nc2nc(-c3cccnc3)nc3ccccc23)cc1 | ~10 µM
* CN(C)c1nc(-c2cccnc2)nc2ccc(OS(C)(=O)=O)cc12 | ~7 µM
* CNc1ccc([N+](=O)[O-])cc1Nc1nc(-c2cccnc2)nc2ccccc12 | ~15 µM
* CNc1ccc([N+](=O)[O-])cc1Nc1nc(-c2ccc(C(=O)c3ccccc3)cc2)nc2ccccc12 | ~7 µM

Which CC50 at 48 h value is on record for O=[N+]([O-])c1ccc(Nc2nc(-c3cccnc3)nc3ccccc23)c(I)c1 ?
~20 µM

Next molecule: O=[N+]([O-])c1ccc(F)c(Nc2nc(-c3cccnc3)nc3cc(C(F)(F)F)ccc23)c1
~11 µM
